Where do these numbers come from? They come from patent US7109193B2.

Where a name gives a salt, the structure may show the parent alone.
Quick record of pIC50 values for human oxytocin receptor (Homo sapiens, UniProt P30559).
The read-out pIC50 is expressed as -log10 of concentration in moles per litre.

Here are 8 compounds together with their reported answers.
- compound: "Cc1cc(C(=O)N2Cc3ccc(C(=O)N4CCC[C@H]4CN4CCCC4)n3Cc3ccccc32)ccc1-c1ccccc1C(F)(F)F"
  target_system: "human oxytocin receptor (Homo sapiens, UniProt P30559)"
  pIC50: 8.55
- compound: "COc1cc(-c2ccccc2C)c(Cl)cc1C(=O)N1Cc2ccc(C(=O)N3CCC(N4CCCCC4)CC3)n2Cc2ccccc21"
  target_system: "human oxytocin receptor (Homo sapiens, UniProt P30559)"
  pIC50: 8.10
- compound: "COc1cc(-c2ccccc2C)c(Cl)cc1C(=O)N1Cc2ccc(C(=O)N3CCN(CCN(C)C)CC3)n2Cc2ccccc21"
  target_system: "human oxytocin receptor (Homo sapiens, UniProt P30559)"
  pIC50: 8.27
- compound: "Cc1cc(C(=O)N2Cc3ccc(C(=O)N4CCNCC4)n3Cc3ccccc32)ccc1-c1ccccc1C(F)(F)F [Example 7, hydrochloride salt]"
  target_system: "human oxytocin receptor (Homo sapiens, UniProt P30559)"
  pIC50: 7.94
- compound: "COc1ccccc1-c1ccc(C(=O)N2Cc3ccc(C(=O)N4CCN(C)CC4)n3Cc3ccccc32)cc1"
  target_system: "human oxytocin receptor (Homo sapiens, UniProt P30559)"
  pIC50: 8.17
- compound: "COc1ccccc1-c1ccc(C(=O)N2Cc3ccc(C(=O)N4CC[C@@H](N(C)C)C4)n3Cc3ccccc32)cc1C"
  target_system: "human oxytocin receptor (Homo sapiens, UniProt P30559)"
  pIC50: 8.58
- compound: "COc1cc(C(=O)N2Cc3ccc(C(=O)N4CCC[C@H]4CN4CCCC4)n3Cc3ccccc32)ccc1-c1ccccc1C(F)(F)F"
  target_system: "human oxytocin receptor (Homo sapiens, UniProt P30559)"
  pIC50: 8.74
- compound: "C=CCN1CCN(C(=O)c2ccc3n2Cc2ccccc2N(C(=O)c2cc(Cl)c(-c4ccccc4C)cc2OC)C3)CC1"
  target_system: "human oxytocin receptor (Homo sapiens, UniProt P30559)"
  pIC50: 7.92

# next compound below
**Query** Short answer please: pIC50, human oxytocin receptor (Homo sapiens, UniProt P30559), entry "COc1cc(C(=O)N2Cc3ccc(C(=O)N(C)CCN(C)C)n3Cc3ccccc32)ccc1-c1ccccc1C(F)(F)F"
**Result** 8.76

----------
Biological target: human oxytocin receptor (Homo sapiens, UniProt P30559)
Construct: host or cells: CHO cells (pcDNA3.1 vector)
Sequence (P30559 1-389): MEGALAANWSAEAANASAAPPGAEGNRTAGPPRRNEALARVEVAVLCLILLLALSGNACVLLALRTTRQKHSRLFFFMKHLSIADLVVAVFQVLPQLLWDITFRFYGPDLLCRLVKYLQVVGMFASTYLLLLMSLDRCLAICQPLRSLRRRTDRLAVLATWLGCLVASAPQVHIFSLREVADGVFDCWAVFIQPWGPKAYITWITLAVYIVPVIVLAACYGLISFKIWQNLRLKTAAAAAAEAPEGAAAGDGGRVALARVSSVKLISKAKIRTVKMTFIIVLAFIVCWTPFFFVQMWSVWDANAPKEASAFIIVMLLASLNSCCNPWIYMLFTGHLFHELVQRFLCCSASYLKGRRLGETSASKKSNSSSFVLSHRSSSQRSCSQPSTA
Test: Oxytocin binding in Chinese Hamster Ovary cell membranes expressing human oxytocin receptors
Conditions: 100 nM, CHO cell membranes, [3H]oxytocin, values without parentheses, read-out: OT % inhibition @ 100% nM
measurement_name: inhibition at 0.1 µM (%)
Please respond with the number in % and leave the unit unwritten.

Here are 4 compounds together with their reported answers.
- compound: "Cc1ccccc1-c1ccc(C(=O)N2Cc3ccc(C(=O)N4CCN(CCN(C)C)CC4)n3Cc3ccccc32)cc1"
  display_unit: "%"
  result_value: 87
- compound: "COc1cc(C(=O)N2Cc3ccc(C(=O)N4CCN(C)CC4)n3Cc3ccccc32)ccc1-n1c(C)ccc1C"
  display_unit: "%"
  result_value: 34
- compound: "COc1cc(C(=O)N2Cc3ccc(C(=O)N(C)C4CCN(C)C4)n3Cc3ccccc32)ccc1-c1cccc2ccccc12 (stereo not drawn)"
  display_unit: "%"
  result_value: 91
- compound: "COc1cc(C(=O)N2Cc3ccc(C(=O)NCCCN(C)C)n3Cc3ccccc32)ccc1-n1c(C)ccc1C"
  display_unit: "%"
  result_value: 7

**Query** Short answer please: inhibition at 0.1 µM, human oxytocin receptor (Homo sapiens, UniProt P30559), entry "COc1ccccc1-c1ccc(C(=O)N2Cc3ccc(C(=O)N[C@H]4CN5CCC4CC5)n3Cc3ccccc32)cc1C"
**Result** 94

**Query** Short answer please: inhibition at 0.1 µM, human oxytocin receptor (Homo sapiens, UniProt P30559), entry "COc1ccccc1-c1ccc(C(=O)N2Cc3ccc(C(=O)N4CCN(C)CC4)n3Cc3ccccc32)cc1OC"
**Result** 68

----------
Biological target: human vasopressin V1a receptor subtype (Homo sapiens, UniProt P37288)
Construct: host or cells: CHO cells (pZeoSV vector for the Thibonnier line)
Sequence (P37288 whole entry): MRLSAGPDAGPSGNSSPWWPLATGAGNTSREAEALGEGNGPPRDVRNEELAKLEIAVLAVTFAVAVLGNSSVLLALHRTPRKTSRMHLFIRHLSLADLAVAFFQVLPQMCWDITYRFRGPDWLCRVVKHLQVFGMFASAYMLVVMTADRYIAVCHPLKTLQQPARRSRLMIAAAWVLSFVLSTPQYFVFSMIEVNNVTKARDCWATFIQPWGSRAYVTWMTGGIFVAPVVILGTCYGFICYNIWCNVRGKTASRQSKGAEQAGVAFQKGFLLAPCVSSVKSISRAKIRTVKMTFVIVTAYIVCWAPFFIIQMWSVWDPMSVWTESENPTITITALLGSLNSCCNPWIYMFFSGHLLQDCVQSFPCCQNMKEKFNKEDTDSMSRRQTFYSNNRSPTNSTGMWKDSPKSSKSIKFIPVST
Test: Vasopressin binding in Chinese Hamster Ovary cell membranes expressing human vasopressin V1a subtype receptors
Settings: 100 nM, CHO cell membranes, [3H]Manning ligand, values without parentheses
Experimental: Vasopressin Binding in Chinese Hamster Ovary Cell Membranes Expressing Human Vasopressin V1a Subtype Receptors The trypsin is removed by aspiration and the cells dislodged by tapping. Cell Culture medium (e.g. 30 mL for 1:30 split) is immediately added and mixed well to inactivate trypsin. […] The filter paper is thoroughly dried (7–12 min. in a microwave oven) and impregnated with MeltiLex B/H melt-on scintillation wax sheets and the radioactivity counted in a betaplate scintillation counter. […]
Examples of compounds with documented inhibition at 0.1 µM follow.
Please respond with the number in % and leave the unit unwritten.

Here are 2 compounds together with their reported answers.
- compound: "COc1cc(C(=O)N2Cc3cccn3Cc3ccccc32)ccc1-c1ccccc1C(F)(F)F [Example 19D]"
  display_unit: "%"
  inhibition at 0.1 µM: 51
- compound: "COc1cccc(-c2ccc(C(=O)N3Cc4ccc(C(=O)N5CCN(C)CC5)n4Cc4ccccc43)cc2C)c1 [Example 51]"
  display_unit: "%"
  inhibition at 0.1 µM: 14

# next compound below
**Query** What does the data say about its inhibition at 0.1 µM? Entry: CC(C)N1CCN(C(=O)c2ccc3n2Cc2ccccc2N(C(=O)c2ccc(-c4cccc5ccccc45)cc2Cl)C3)CC1 [Example 243]
**Result** 5

----------
Examples of compounds with documented inhibition at 0.1 µM follow.
target: human vasopressin V1a receptor subtype (Homo sapiens, UniProt P37288); construct: host or cells: CHO cells (pZeoSV vector for the Thibonnier line); assay: Vasopressin binding in Chinese Hamster Ovary cell membranes expressing human vasopressin V1a subtype receptors; details: 100 nM, CHO cell membranes, [3H]Manning ligand, values without parentheses
Please respond with the number in % and leave the unit unwritten.

Here are 5 compounds together with their reported answers.
- compound: "COc1cc(C(=O)N2Cc3ccc(C(=O)N4CCN(CCN(C)C)CC4)n3Cc3ccccc32)ccc1-n1c(C)ccc1C"
  display_unit: "%"
  inhibition at 0.1 µM: 0
- compound: "COc1cc(C(=O)N2Cc3ccc(C(=O)NCCC4CCCN4C)n3Cc3ccccc32)ccc1-c1ccccc1C (stereo not shown)"
  display_unit: "%"
  inhibition at 0.1 µM: 50
- compound: "O=C(NCCCn1ccnc1)c1ccc2n1Cc1ccccc1N(C(=O)c1ccc(-c3cccc4ccccc34)cc1Cl)C2"
  display_unit: "%"
  inhibition at 0.1 µM: 5
- compound: "COc1cccc(-c2ccc(C(=O)N3Cc4ccc(C(=O)N5CCN(C)CC5)n4Cc4ccccc43)cc2OC)c1"
  display_unit: "%"
  inhibition at 0.1 µM: 15
- compound: "COc1cc(C(=O)N2Cc3ccc(C(=O)N4CCC(N5CCCC5)CC4)n3Cc3ccccc32)ccc1-n1c(C)ccc1C"
  display_unit: "%"
  inhibition at 0.1 µM: 2

**Query** What does the data say about its inhibition at 0.1 µM? Entry: "Cc1ccccc1-c1ccc(C(=O)N2Cc3ccc(C(=O)NCCCn4ccnc4)n3Cc3ccccc32)cc1C"
**Result** 16

**Query** What does the data say about its inhibition at 0.1 µM? Entry: "COc1ccccc1-c1ccc(C(=O)N2Cc3ccc(C(=O)NCCCN(C)C)n3Cc3ccccc32)cc1"
**Result** 27

**Query** What does the data say about its inhibition at 0.1 µM? Entry: "COc1cc(C(=O)N2Cc3ccc(C(=O)N4CCCN(C)CC4)n3Cc3ccccc32)ccc1-c1ccccc1C"
**Result** 52

**Query** What does the data say about its inhibition at 0.1 µM? Entry: "Cc1ccccc1-c1ccc(C(=O)N2Cc3ccc(C(=O)NCCN4CCCCC4)n3Cc3ccccc32)cc1"
**Result** 50

**Query** What does the data say about its inhibition at 0.1 µM? Entry: "COc1cc(C(=O)N2Cc3ccc(C(=O)N(C)C4CCN(C)CC4)n3Cc3ccccc32)ccc1-c1ccccc1C"
**Result** 73

**Query** What does the data say about its inhibition at 0.1 µM? Entry: "COc1cc(C(=O)N2Cc3ccc(C(=O)N(C)CCCN(C)C)n3Cc3ccccc32)ccc1-c1cccc2ccccc12"
**Result** 22

**Query** What does the data say about its inhibition at 0.1 µM? Entry: "COc1cc(C(=O)N2Cc3ccc(C(=O)N(C)CCN(C)C)n3Cc3ccccc32)ccc1-c1cccc2ccccc12"
**Result** 29

**Query** What does the data say about its inhibition at 0.1 µM? Entry: "COc1cc(-c2ccccc2C)c(Cl)cc1C(=O)N1Cc2ccc(C(=O)NCCCn3ccnc3)n2Cc2ccccc21"
**Result** 6
